molecular target: T1, human complement component C3 (human, UniProt P01024 23-667; P01024 672-1663); assay: counter screen
T1 construct: also called biotinylated C3
T1 sequence (P01024 23-667 limits assumed, chain 1 of 2): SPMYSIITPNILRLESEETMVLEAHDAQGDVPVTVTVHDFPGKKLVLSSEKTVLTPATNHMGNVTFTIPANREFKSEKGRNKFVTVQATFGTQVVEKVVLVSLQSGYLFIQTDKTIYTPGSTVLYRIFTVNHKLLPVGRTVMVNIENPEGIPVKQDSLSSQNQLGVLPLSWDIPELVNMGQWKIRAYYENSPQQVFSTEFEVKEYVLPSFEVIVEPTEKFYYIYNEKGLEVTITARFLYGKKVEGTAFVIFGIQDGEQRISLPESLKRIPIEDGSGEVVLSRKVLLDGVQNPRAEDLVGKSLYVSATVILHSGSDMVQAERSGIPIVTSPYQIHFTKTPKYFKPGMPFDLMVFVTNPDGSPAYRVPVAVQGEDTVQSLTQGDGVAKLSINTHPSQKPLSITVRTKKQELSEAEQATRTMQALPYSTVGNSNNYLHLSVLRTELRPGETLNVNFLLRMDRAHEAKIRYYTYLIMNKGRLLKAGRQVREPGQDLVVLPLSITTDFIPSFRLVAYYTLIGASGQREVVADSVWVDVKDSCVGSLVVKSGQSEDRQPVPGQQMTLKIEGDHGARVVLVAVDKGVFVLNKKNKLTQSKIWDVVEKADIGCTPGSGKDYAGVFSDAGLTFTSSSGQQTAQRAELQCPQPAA
T1 sequence (P01024 672-1663 limits assumed, chain 2 of 2): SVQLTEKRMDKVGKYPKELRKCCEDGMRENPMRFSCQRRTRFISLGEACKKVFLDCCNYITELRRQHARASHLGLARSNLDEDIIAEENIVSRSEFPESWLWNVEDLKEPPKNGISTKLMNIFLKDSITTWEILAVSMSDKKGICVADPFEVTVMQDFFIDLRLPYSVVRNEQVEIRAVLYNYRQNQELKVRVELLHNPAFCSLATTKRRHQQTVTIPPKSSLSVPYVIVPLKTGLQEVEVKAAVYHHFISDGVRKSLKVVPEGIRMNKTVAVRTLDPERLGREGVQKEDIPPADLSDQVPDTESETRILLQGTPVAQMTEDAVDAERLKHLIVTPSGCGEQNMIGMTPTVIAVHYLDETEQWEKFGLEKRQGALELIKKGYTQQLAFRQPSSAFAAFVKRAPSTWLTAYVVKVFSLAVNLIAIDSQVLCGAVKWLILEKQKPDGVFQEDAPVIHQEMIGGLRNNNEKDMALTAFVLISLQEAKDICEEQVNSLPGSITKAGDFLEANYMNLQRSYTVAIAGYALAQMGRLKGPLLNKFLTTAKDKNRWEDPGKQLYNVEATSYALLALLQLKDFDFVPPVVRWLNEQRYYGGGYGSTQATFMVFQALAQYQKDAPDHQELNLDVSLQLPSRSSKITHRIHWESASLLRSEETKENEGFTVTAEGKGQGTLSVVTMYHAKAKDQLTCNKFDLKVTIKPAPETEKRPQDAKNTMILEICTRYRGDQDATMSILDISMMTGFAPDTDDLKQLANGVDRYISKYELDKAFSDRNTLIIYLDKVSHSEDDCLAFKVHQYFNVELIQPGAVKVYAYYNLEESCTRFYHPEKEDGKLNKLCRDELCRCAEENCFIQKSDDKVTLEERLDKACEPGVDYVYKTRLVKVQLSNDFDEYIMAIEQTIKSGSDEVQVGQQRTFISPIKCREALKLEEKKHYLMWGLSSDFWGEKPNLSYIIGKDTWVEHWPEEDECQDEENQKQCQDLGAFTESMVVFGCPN
measurement-type: binding result

>>> recorded_measurement("K92 knob domain peptide cleaved from the 645 Fab (Recombinant, cut out by TEV protease) peptide: GSGSVTCPEGWSECGVAIYGYECGRWGCGHFLNSGPNISPYVTTGSENLYFQ")
"no binding"
>>> recorded_measurement("K8 knob domain peptide cleaved from the 645 Fab (Recombinant, cut out by TEV protease) peptide: GSVCPDGFNWGYGCAAGSSRFCTRHDWCCYDERADSHTYGFCTGNRVENLYFQ")
"no binding"
>>> recorded_measurement("GSSGCPPGYKSGVDCSPGSECKWGCYAVDGRRYGGYGADSGVENLYFQ (Recombinant, cut out by TEV protease) [K57 knob domain peptide cleaved from the 645 Fab]")
"no binding"
>>> recorded_measurement("GSKSCREGYIDGGGCCLPGSCRGCACSYYDWLKCPRDCRGTSEEENLYFQ (Recombinant, cut out by TEV protease) [K60 knob domain peptide cleaved from the 645 Fab]")
"no binding"
